measured target: PI3-kinase p110α (Bos taurus)
assay comment: The test compounds and enzyme were mixed in buffer, and the substrate and [gamma-33P] ATP/ATP were added to the mixture to initiate the reaction. After allowing the reaction to proceed at room temperature for 120 min, wheat germ agglutinin-coated SPA beads (Amersham) was added. The mixture was left to stand for 5 min and then centrifuged. Radi
reported conditions: pH 7.4
readout type: pIC50
Numbers only, as −log10 of the molar value.

Please give the documented pIC50 of `Cc1ccc([N+](=O)[O-])cc1S(=O)(=O)n1ccc(-c2cnc3ccc(Cl)cn23)c1`
7.00
